Reported OD600 after 10 h growth values are given for each entry in this list.
# System: Escherichia coli CFT073 (UPEC)
# Measurement protocol: OD600 after 10 h growth (baseline-subtracted); higher = more bacterial growth (less inhibition)
# Protocol conditions: 2 µg/mL
Write the number on its own, no unit after it.

Before answering, review these 4 worked examples.
Problem: Entry Cc1c(Cl)c(C)[n+]([O-])c(Cl)c1-c1noc(-c2cc(O)c(O)c([N+](=O)[O-])c2)n1 has what OD600 after 10 h growth?
Solution: 0.786

Problem: Entry CC(C)(C)c1ccc(C(=O)CCCN2CCC(OC(c3ccccc3)c3ccccc3)CC2)cc1 has what OD600 after 10 h growth?
Solution: 0.792

Problem: Entry CC1=C(C)C(=O)C(CCCCCCCCCC[P+](c2ccccc2)(c2ccccc2)c2ccccc2)=CC1=O has what OD600 after 10 h growth?
Solution: 0.818

Problem: Entry COc1cc2c(cc1Cc1cccc(Cl)c1F)c(=O)c(C(=O)O)cn2[C@H](CO)C(C)C has what OD600 after 10 h growth?
Solution: 0.812

Further cases:
Problem: Entry Cc1cn([C@H]2C[C@H](O)[C@@H](CO)O2)c(=O)[nH]c1=O has what OD600 after 10 h growth?
Solution: 0.891

Problem: Entry CC(=O)N[C@H](Cc1ccc2ccccc2c1)C(=O)N[C@H](Cc1ccc(Cl)cc1)C(=O)N[C@H](Cc1cccnc1)C(=O)N[C@@H](CO)C(=O)N[C@@H](Cc1ccc(O)cc1)C(=O)N[C@H](CCCNC(N)=O)C(=O)N[C@@H](CC(C)C)C(=O)N[C@@H](CCCNC(=N)N)C(=O)N1CCC[C@H]1C(=O)N[C@H](C)C(N)=O has what OD600 after 10 h growth?
Solution: 0.827

* * *

# Tested on: Staphylococcus aureus Newman
# Measurement protocol: OD600 after 10 h growth (baseline-subtracted); higher = more bacterial growth (less inhibition)
# Protocol conditions: 16 µg/mL
Reported OD600 after 10 h growth values are given for each entry in this list.
Write the number on its own, no unit after it.

Before answering, review these 5 worked examples.
Problem: Entry COc1cc2c(cc1Cc1cccc(Cl)c1F)c(=O)c(C(=O)O)cn2[C@H](CO)C(C)C [Elvitegravir] has what OD600 after 10 h growth?
Solution: 0.0197

Problem: Entry CC1=C(C)C(=O)C(CCCCCCCCCC[P+](c2ccccc2)(c2ccccc2)c2ccccc2)=CC1=O [Visomitin] has what OD600 after 10 h growth?
Solution: 0.0257

Problem: Entry CC(C)(C)c1ccc(C(=O)CCCN2CCC(OC(c3ccccc3)c3ccccc3)CC2)cc1 [Ebastine] has what OD600 after 10 h growth?
Solution: 0.987

Problem: Entry Cc1cn([C@H]2C[C@H](O)[C@@H](CO)O2)c(=O)[nH]c1=O [Thymidine] has what OD600 after 10 h growth?
Solution: 1.23

Problem: Entry CC(=O)N[C@H](Cc1ccc2ccccc2c1)C(=O)N[C@H](Cc1ccc(Cl)cc1)C(=O)N[C@H](Cc1cccnc1)C(=O)N[C@@H](CO)C(=O)N[C@@H](Cc1ccc(O)cc1)C(=O)N[C@H](CCCNC(N)=O)C(=O)N[C@@H](CC(C)C)C(=O)N[C@@H](CCCNC(=N)N)C(=O)N1CCC[C@H]1C(=O)N[C@H](C)C(N)=O [Cetrorelix] has what OD600 after 10 h growth?
Solution: 1.12

Okay, next one:
Problem: Entry Cc1c(Cl)c(C)[n+]([O-])c(Cl)c1-c1noc(-c2cc(O)c(O)c([N+](=O)[O-])c2)n1 [Opicapone] has what OD600 after 10 h growth?
Solution: 0.413
